tested on: Mycobacterium tuberculosis Erdman (autoluminescent); assay: total FIC50 (Loewe) at 50% inhibition, three-drug combination (log2); higher = more antagonistic; details: in vitro model: cholesterol-high 0.2 mM; time point: constant (~7 days, model-specific)
Each item that follows carries a reported total FIC50.

Check out these entries, answers already filled in.
INSERT INTO assay_data (compound, target_system, observed) VALUES
  ('NNC(=O)c1ccncc1 [isoniazid] + COc1c(N2C[C@@H]3CCCN[C@@H]3C2)c(F)cc2c(=O)c(C(=O)O)cn(C3CC3)c12 [moxifloxacin] + CO[C@H]1/C=C/O[C@@]2(C)Oc3c(C)c(O)c4c(O)c(c(/C=N/N5CCN(C)CC5)c(O)c4c3C2=O)NC(=O)/C(C)=C\C=C\[C@H](C)[C@H](O)[C@@H](C)[C@@H](O)[C@@H](C)[C@H](OC(C)=O)[C@@H]1C [rifampicin]', 'Mycobacterium tuberculosis Erdman (autoluminescent)', 0.265),
  ('COc1nc2ccc(Br)cc2cc1[C@@H](c1ccccc1)[C@@](O)(CCN(C)C)c1cccc2ccccc12 [bedaquiline] + NNC(=O)c1ccncc1 [isoniazid] + CO[C@H]1/C=C/O[C@@]2(C)Oc3c(C)c(O)c4c(O)c(c(/C=N/N5CCN(C)CC5)c(O)c4c3C2=O)NC(=O)/C(C)=C\C=C\[C@H](C)[C@H](O)[C@@H](C)[C@@H](O)[C@@H](C)[C@H](OC(C)=O)[C@@H]1C [rifampicin]', 'Mycobacterium tuberculosis Erdman (autoluminescent)', 0.606);

With those in mind, consider the next compound.
Documented total FIC50 of NNC(=O)c1ccncc1 [isoniazid] + NC(=O)c1cnccn1 [pyrazinamide] + CO[C@H]1/C=C/O[C@@]2(C)Oc3c(C)c(O)c4c(O)c(c(/C=N/N5CCN(C6CCCC6)CC5)c(O)c4c3C2=O)NC(=O)/C(C)=C\C=C\[C@H](C)[C@H](O)[C@@H](C)[C@@H](O)[C@@H](C)[C@H](OC(C)=O)[C@@H]1C [rifapentine] : 0.738

---

test system: Mycobacterium tuberculosis Erdman (autoluminescent); experiment: GRinf, maximum normalised growth rate inhibition (three-drug combination) (unitless (-1 to 1)); higher = less effect (negative = killing); details: in vitro model: cholesterol-high 0.2 mM; time point: constant (~7 days, model-specific)
READOUT LABEL: GRinf
A bare number is all that is needed in reply.

INSERT INTO assay_data (molecule, observed) VALUES
  ('CC[C@@H](CO)NCCN[C@@H](CC)CO [ethambutol] + CC(=O)NC[C@H]1CN(c2ccc(N3CCOCC3)c(F)c2)C(=O)O1 [linezolid] + NC(=O)c1cnccn1 [pyrazinamide]', -0.667);

Then this molecule:
Entry CC(C)/N=c1\cc2n(-c3ccc(Cl)cc3)c3ccccc3nc-2cc1Nc1ccc(Cl)cc1 [clofazimine] + NNC(=O)c1ccncc1 [isoniazid] + CO[C@H]1/C=C/O[C@@]2(C)Oc3c(C)c(O)c4c(O)c(c(/C=N/N5CCN(C6CCCC6)CC5)c(O)c4c3C2=O)NC(=O)/C(C)=C\C=C\[C@H](C)[C@H](O)[C@@H](C)[C@@H](O)[C@@H](C)[C@H](OC(C)=O)[C@@H]1C [rifapentine] ; GRinf = -0.471

---

test system: Mycobacterium tuberculosis Erdman (autoluminescent); assay: AUC25, normalised area under dose response up to IC25 (three-drug combination) (fraction (0-1)); higher = more potent at low dose; conditions: in vitro model: cholesterol 0.05 mM; time point: constant (~7 days, model-specific)
READOUT LABEL: AUC25

Here's what some known entries look like.
INSERT INTO assay_data (compound, observed) VALUES
  ('COc1nc2ccc(Br)cc2cc1[C@@H](c1ccccc1)[C@@](O)(CCN(C)C)c1cccc2ccccc12 [bedaquiline] + CC(C)/N=c1\cc2n(-c3ccc(Cl)cc3)c3ccccc3nc-2cc1Nc1ccc(Cl)cc1 [clofazimine] + CC(=O)NC[C@H]1CN(c2ccc(N3CCOCC3)c(F)c2)C(=O)O1 [linezolid]', 0.14),
  ('NNC(=O)c1ccncc1 [isoniazid] + CC(=O)NC[C@H]1CN(c2ccc(N3CCOCC3)c(F)c2)C(=O)O1 [linezolid] + COc1c(N2C[C@@H]3CCCN[C@@H]3C2)c(F)cc2c(=O)c(C(=O)O)cn(C3CC3)c12 [moxifloxacin]', 0.149);

compound CC[C@@H](CO)NCCN[C@@H](CC)CO [ethambutol] + NNC(=O)c1ccncc1 [isoniazid] + NC(=O)c1cnccn1 [pyrazinamide] , AUC25 observed: 0.115

Given item COc1nc2ccc(Br)cc2cc1[C@@H](c1ccccc1)[C@@](O)(CCN(C)C)c1cccc2ccccc12 [bedaquiline] + CC(C)/N=c1\cc2n(-c3ccc(Cl)cc3)c3ccccc3nc-2cc1Nc1ccc(Cl)cc1 [clofazimine] + NC(=O)c1cnccn1 [pyrazinamide] , the value recorded as its AUC25 is 0.0812

The reported AUC25 of the compound CC(C)/N=c1\cc2n(-c3ccc(Cl)cc3)c3ccccc3nc-2cc1Nc1ccc(Cl)cc1 [clofazimine] + CC(=O)NC[C@H]1CN(c2ccc(N3CCOCC3)c(F)c2)C(=O)O1 [linezolid] + NC(=O)c1cnccn1 [pyrazinamide] was 0.131

Lookup result for CC(C)/N=c1\cc2n(-c3ccc(Cl)cc3)c3ccccc3nc-2cc1Nc1ccc(Cl)cc1 [clofazimine] + CC(=O)NC[C@H]1CN(c2ccc(N3CCOCC3)c(F)c2)C(=O)O1 [linezolid] + COc1c(N2C[C@@H]3CCCN[C@@H]3C2)c(F)cc2c(=O)c(C(=O)O)cn(C3CC3)c12 [moxifloxacin] ; measured AUC25: 0.141

The reported AUC25 of the compound CC(=O)NC[C@H]1CN(c2ccc(N3CCOCC3)c(F)c2)C(=O)O1 [linezolid] + COc1c(N2C[C@@H]3CCCN[C@@H]3C2)c(F)cc2c(=O)c(C(=O)O)cn(C3CC3)c12 [moxifloxacin] + CO[C@H]1/C=C/O[C@@]2(C)Oc3c(C)c(O)c4c(O)c(c(/C=N/N5CCN(C)CC5)c(O)c4c3C2=O)NC(=O)/C(C)=C\C=C\[C@H](C)[C@H](O)[C@@H](C)[C@@H](O)[C@@H](C)[C@H](OC(C)=O)[C@@H]1C [rifampicin] was 0.156

AUC25 measured on CC[C@@H](CO)NCCN[C@@H](CC)CO [ethambutol] + COc1c(N2C[C@@H]3CCCN[C@@H]3C2)c(F)cc2c(=O)c(C(=O)O)cn(C3CC3)c12 [moxifloxacin] + NC(=O)c1cnccn1 [pyrazinamide] = 0.12

CC[C@@H](CO)NCCN[C@@H](CC)CO [ethambutol] + NC(=O)c1cnccn1 [pyrazinamide] + CO[C@H]1/C=C/O[C@@]2(C)Oc3c(C)c(O)c4c(O)c(c(/C=N/N5CCN(C)CC5)c(O)c4c3C2=O)NC(=O)/C(C)=C\C=C\[C@H](C)[C@H](O)[C@@H](C)[C@@H](O)[C@@H](C)[C@H](OC(C)=O)[C@@H]1C [rifampicin] yielded AUC25 of 0.089

response.value for CC[C@@H](CO)NCCN[C@@H](CC)CO [ethambutol] + NNC(=O)c1ccncc1 [isoniazid] + O=[N+]([O-])c1cn2c(n1)OC[C@@H](OCc1ccc(OC(F)(F)F)cc1)C2 [pretomanid] (field: AUC25) = 0.11

get_value(item= CC(=O)NC[C@H]1CN(c2ccc(N3CCOCC3)c(F)c2)C(=O)O1 [linezolid] + O=[N+]([O-])c1cn2c(n1)OC[C@@H](OCc1ccc(OC(F)(F)F)cc1)C2 [pretomanid] + NC(=O)c1cnccn1 [pyrazinamide] , readout=AUC25) returns 0.14

Per the records, this compound ( CC[C@@H](CO)NCCN[C@@H](CC)CO [ethambutol] + CO[C@H]1/C=C/O[C@@]2(C)Oc3c(C)c(O)c4c(O)c(c(/C=N/N5CCN(C6CCCC6)CC5)c(O)c4c3C2=O)NC(=O)/C(C)=C\C=C\[C@H](C)[C@H](O)[C@@H](C)[C@@H](O)[C@@H](C)[C@H](OC(C)=O)[C@@H]1C [rifapentine] + CO[C@H]1/C=C/O[C@@]2(C)Oc3c(C)c(O)c4c(O)c(c(/C=N/N5CCN(C)CC5)c(O)c4c3C2=O)NC(=O)/C(C)=C\C=C\[C@H](C)[C@H](O)[C@@H](C)[C@@H](O)[C@@H](C)[C@H](OC(C)=O)[C@@H]1C [rifampicin] ) has AUC25 equal to 0.12

Provenance of the data: the supplement of paper PMC8617591
